Exercise: for every item that follows, state its recorded protein stability index.
B1: ZNF449 (parent)
chain: YRHQRLHTGERPYECTVCKKRFTR

# Variants of: B1
# assay-procedure: protein stability index of a GFP-peptide fusion (GPS, HEK-293T) (PSI 1-6); higher = more stable;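 note: lentivirally expressed fusions sorted by FACS into six bins by GFP to DsRed ratio, PSI derived from sequencing read proportions per bin multiplied by bin number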
# measurement-conditions: c terminus: a fixed tail appended
Give bare numbers.

Illustrative cases are given below, each with its answer.
In [3]: df
Out[3]:
   variant_key  recorded_value
0         P12T            2.88
1          R5Q            2.61
2         K19I            2.58
3         R24M            2.68
4         T16S            2.39
5         K19Q            2.57

For each of the variants below, state protein stability index.
1. E10D
2. R21C
3. R24E
4. H3V
5. E10T
6. E14P
7. Y1G

[2.28, 2.01, 2.78, 2.03, 2.48, 2.93, 2.21]
